Reported logD is given for each of the following compounds.
experiment: method code SF, from DOI: 10.1021/jm101405t, PMID: 21319751; conditions: pH 7.4
The reply should be a number, written without any unit.

Past entries and their recorded results:
>>> measurement("OCCc1ccc(OCc2ccccc2-c2ccccc2)cc1")
3.25
>>> measurement("OCCc1ccc(OCc2ccccc2)cc1")
1.96
>>> measurement("OCCc1ccc(-c2cccc(OCCc3ccccc3)c2)cc1")
3.63
>>> measurement("OCCc1ccc(OCc2cccc(-c3nccs3)c2)cc1")
2.11

Entry OCCc1ccc(OCc2cccc(-c3ccccc3)c2)cc1 ; logD = 3.37

Entry OCCc1ccc(OCc2ccc(-c3ccccc3)cc2)cc1 ; logD = 3.41
